Target: non-opioid receptors for β-endorphin on T lymphocytes
Format: binding, human
Conditions: read-out: Kd of labeled peptide binding to T lymphocytes
MEASURED METRIC: Kd (nM)

SUBSTANCE | REPORTED VALUE
H-VKGFY-OH [Pentarphin, Val-Lys-Gly-Phe-Tyr] | 36.3
